LDH (% of ctl) listing for selected compounds.
Tested on: primary cortico-hippocampal neuron cultures
method description: lactate dehydrogenase (LDH) activity assay in parallel neuron cultures
measurement setup: Primary Screening; table sorted by Aβ1-40
Counter-ions that a name gives are not always drawn.

// worked examples, LDH (% of ctl) included
compound | LDH (% of ctl)
NCCc1cc(O)c(O)cc1O [Oxidopamine Hydrochloride] | 103.6 % of ctl
C[N+](C)(C)CCCCCC[N+](C)(C)C [Hexamethonium Bromide] | 99.7 % of ctl
CCOC(=O)[C@H](CCc1ccccc1)N[C@H]1CCc2ccccc2N(CC(=O)O)C1=O [Benazepril Hydrochloride] | 103.5 % of ctl
CC1Cc2ccccc2N1NC(=O)c1ccc(Cl)c(S(N)(=O)=O)c1 (stereo not drawn) [Indapamide] | 85.3 % of ctl
Cc1cccc(C)c1OCC(C)N (stereo not drawn) [Mexiletine Hydrochloride] | 103.4 % of ctl
CCOC(=O)[C@H](CCc1ccccc1)N[C@@H](C)C(=O)N1[C@H](C(=O)O)C[C@@H]2CCC[C@@H]21 [Ramipril] | 96.4 % of ctl
CC(=O)O[C@H]1C[C@H](O[C@H]2[C@@H](O)C[C@H](O[C@H]3[C@@H](O)C[C@H](O[C@H]4CC[C@@]5(C)[C@H](CC[C@@H]6[C@@H]5C[C@@H](O)[C@]5(C)[C@@H](C7=CC(=O)OC7)CC[C@]65O)C4)O[C@@H]3C)O[C@@H]2C)O[C@H](C)[C@H]1O[C@@H]1O[C@H](CO)[C@@H](O)[C@H](O)[C@H]1O [Lanatoside C] | 166.0 % of ctl
CC(CCc1ccccc1)NC(C)C(O)c1ccc(O)cc1 (stereo not drawn) [Nylidrin Hydrochloride] | 115.6 % of ctl
CN1C(C)(C)CCCC1(C)C [Pempidine Tartrate] | 108.4 % of ctl
COc1cc2c3cc1Oc1c(OC)c(OC)cc4c1[C@@H](Cc1cccc(c1)Oc1ccc(c(O)c1)C[C@@H]3N(C)CC2)N(C)CC4 [Berbamine Hydrochloride] | 129.1 % of ctl

# assay system primary cortico-hippocampal neuron cultures: give LDH (% of ctl) of COC(=O)[C@@H]1[C@H]2C[C@H]3c4[nH]c5ccccc5c4CCN3C[C@@H]2CC[C@@H]1O [Yohimbine Hydrochloride]
107.8 % of ctl

Give LDH (% of ctl) for C#CCN(C)Cc1ccccc1 [Pargyline Hydrochloride] tested on primary cortico-hippocampal neuron cultures.
116.9 % of ctl

Jot down LDH (% of ctl) (primary cortico-hippocampal neuron cultures) of COC(=O)C1=C(C)NC(C)=C(C(=O)OCCN(C)Cc2ccccc2)C1c1cccc([N+](=O)[O-])c1 (stereo not drawn) [Nicardipine Hydrochloride] .
104.2 % of ctl

// fetch LDH (% of ctl) for CC[C@]12CCCN3CCc4c(n(c5ccccc45)[C@@](O)(C(=O)OC)C1)[C@@H]32 [Vincamine] ; system: primary cortico-hippocampal neuron cultures
96.4 % of ctl

Please tell me the measured LDH (% of ctl) for CN1C[C@H](CNC(=O)OCc2ccccc2)C[C@@H]2c3cccc4c3c(cn4C)C[C@H]21 [Metergoline] ; system: primary cortico-hippocampal neuron cultures.
159.3 % of ctl
